measured-target: T1, recombinant human FZD5-Fc chimera (R&D Systems, Catalog no. 1617-FZ) (human, UniProt Q13467 27-167)
T1 construct: used for selection and ELISA; Fc part of the bought chimera not given
T1 sequence: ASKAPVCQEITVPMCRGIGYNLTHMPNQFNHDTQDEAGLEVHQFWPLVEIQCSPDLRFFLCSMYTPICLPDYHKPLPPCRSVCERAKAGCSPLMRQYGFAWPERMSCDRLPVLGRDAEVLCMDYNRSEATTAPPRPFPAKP
protocol-summary: SPR, Frizzled-Fc chimera;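 also: binding targets are Fc fusions carrying an extracellular Frizzled fragment that contains the CRD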
measured-endpoint: Kd (nM)
Please give a number only; it is taken to be in nM.

Reported Kd for IgG-2921 (antibody, V domains shown) VH: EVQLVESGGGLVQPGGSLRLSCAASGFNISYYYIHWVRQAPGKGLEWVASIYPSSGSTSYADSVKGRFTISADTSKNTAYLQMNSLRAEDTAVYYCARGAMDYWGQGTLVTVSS VL: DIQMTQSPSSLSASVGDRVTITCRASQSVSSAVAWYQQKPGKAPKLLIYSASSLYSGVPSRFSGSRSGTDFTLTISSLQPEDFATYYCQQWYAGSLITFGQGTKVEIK : what is it? 0.106
